System: Enterococcus faecalis
Assay: Antibacterial activity against Enterococcus faecalis SR7914 (VRE)
Assay type: functional
measured endpoint: MIC (µg/mL)

{"compound": "CCCCCCCCCCCCCCCC(=O)N[C@@H]1CCN[C@@H]([C@@H](O[C@@H]2O[C@H](CN)[C@@H](O)[C@H]2O)[C@H]2O[C@@H](n3ccc(=O)[nH]c3=O)[C@H](O)[C@@H]2O)C1", "study system": "Enterococcus faecalis", "measured endpoint": "MIC", "measurement": 32}
{"compound": "CCCCCCCCCCCCCCCC(=O)NC[C@@H]1C[C@H]2[C@@H](C(=O)N1CCCNC(=N)N)[C@H]([C@H]1O[C@@H](n3ccc(=O)[nH]c3=O)[C@H](O)[C@@H]1O)ON2CCCN", "study system": "Enterococcus faecalis", "measured endpoint": "MIC", "measurement": 16}
{"compound": "CCCCCCCCCCCCCCC[C@H](NC(=O)[C@@H](N)CCCNC(=N)N)C(=O)NC[C@@H]1CC2[C@H](C(=O)N1)[C@@H]([C@H]1O[C@@H](n3ccc(=O)[nH]c3=O)[C@H](O)[C@@H]1O)ON2CCCN (single isomer, unassigned)", "study system": "Enterococcus faecalis", "measured endpoint": "MIC", "measurement": 32}
{"compound": "CCCCCCCCCCCCCCCCC[C@H]1CN[C@@H]([C@H](O[C@@H]2O[C@H](CN)[C@@H](O)[C@H]2O)[C@H]2O[C@@H](n3ccc(=O)[nH]c3=O)[C@H](O)[C@@H]2O)C(=O)N(C)[C@@H]1C(=O)O", "study system": "Enterococcus faecalis", "measured endpoint": "MIC", "measurement": 16}
{"compound": "CCCCCCCCCCCCCCCC(=O)N[C@H]1CCN[C@H]([C@H](O[C@@H]2O[C@H](CN)[C@@H](O)[C@H]2O)[C@H]2O[C@@H](n3ccc(=O)[nH]c3=O)[C@H](O)[C@@H]2O)C1", "study system": "Enterococcus faecalis", "measured endpoint": "MIC", "measurement": 8}

---

Each entry below carries its recorded MIC.
System: Enterococcus faecium
Assay: Antibacterial activity against Enterococcus faecium ATCC 19434
Type: functional
measured endpoint: MIC (µg/mL)

{"smiles text": "NC[C@H]1O[C@@H](O[C@@H](c2cn(CCCCCCCCCCOc3ccc(C(=O)c4ccccc4)cc3)nn2)[C@H]2O[C@@H](n3ccc(=O)[nH]c3=O)[C@H](O)[C@@H]2O)[C@H](O)[C@@H]1O", "measured endpoint": "MIC", "censor symbol": ">", "measurement": 128}
{"smiles text": "CCCCCCCCCCCCCCCCC[C@H]1CN[C@@H]([C@H](O[C@@H]2O[C@H](CN)[C@@H](O)[C@H]2O)[C@H]2O[C@@H](n3ccc(=O)[nH]c3=O)[C@H](O)[C@@H]2O)C(=O)N(C)[C@@H]1C(=O)O", "measured endpoint": "MIC", "censor symbol": "=", "measurement": 8}
{"smiles text": "CCCCCCCCCCc1cn(C[C@H](O[C@@H]2O[C@H](CN)[C@@H](O)[C@H]2O)[C@H]2O[C@@H](n3ccc(=O)[nH]c3=O)[C@H](O)[C@@H]2O)nn1", "measured endpoint": "MIC", "censor symbol": ">", "measurement": 128}
{"smiles text": "CCCCCCCCCCCCCCCC(=O)N[C@@H]1CCN[C@@H]([C@H](O[C@@H]2O[C@H](CN)[C@@H](O)[C@H]2O)[C@H]2O[C@@H](n3ccc(=O)[nH]c3=O)[C@H](O)[C@@H]2O)C1", "measured endpoint": "MIC", "censor symbol": "=", "measurement": 8}
{"smiles text": "NC[C@H]1O[C@@H](O[C@@H](Cc2cn(Cc3ccc(COc4ccc(C(=O)c5ccccc5)cc4)cc3)nn2)[C@H]2O[C@@H](n3ccc(=O)[nH]c3=O)[C@H](O)[C@@H]2O)[C@H](O)[C@@H]1O", "measured endpoint": "MIC", "censor symbol": ">", "measurement": 128}

Where do the numbers come from? From ChEMBL document CHEMBL4402510.
